Data origin: PubChem BioAssay (NCI)

Test system: T-47D breast
Test: NCI-60 one-dose screen, 48 h (100 = growth as untreated, 0 = no growth, -100 = all killed)
Conditions: 10 µM unless noted
Procedure: Growth inhibition of the T-47D human tumor cell line is measured as a screen for anti-cancer activity. Cells are grown in 96 well plates and exposed to the test compound for 48 hours. Compounds are tested at a single concentration, which is 10^-5 M for most compounds. The reported endpoint is percent growth (GI% or GIPRCNT), where numbers from 0 - 100% represent growth inhibition, and numbers from -100% - 0 represent cell death. For example, a value of 40 represents 60% growth inhibition. […]
Compounds without any hit were thinned out: in the full panel of roughly 83,000, 20% have a hit.
Mark each entry True if its growth sits below 90%, and False for all others.

These recorded examples may help you get a feel for the data.
[
  {
    "molecule": "CCOC(=O)c1cc(C(=O)c2ccc(Br)cc2)n2cc(C)cc(C)c12",
    "target": "T-47D breast",
    "class-name": "True"
  },
  {
    "molecule": "CC[C@H](Nc1ncnc2nc[nH]c12)c1nc2cccc(NCc3ccc(C(=O)NO)nc3)c2c(=O)n1-c1ccccc1",
    "target": "T-47D breast",
    "class-name": "True"
  },
  {
    "molecule": "N=c1c2c(=O)n3c(nc2nc2sc4ccc(Cl)cc4n12)-c1ccccc1Sc1ccccc1-3",
    "target": "T-47D breast",
    "class-name": "True"
  },
  {
    "molecule": "CC(=O)Nc1nc(C)c(C(=O)NN)s1",
    "target": "T-47D breast",
    "class-name": "True"
  },
  {
    "molecule": "CCOC(=O)c1csc(-c2ccc(COC(=O)c3ccccc3)o2)n1",
    "target": "T-47D breast",
    "class-name": "False"
  }
]

Now for a further molecule.
# check: growth < 90% for Nc1nc2c(c3cnccc13)C(c1cccc(Cl)c1)Cc1cnccc1-2 (configuration not stated)
True
